Emax overview
Molecular target: M4 mAChR (Homo sapiens, UniProt P08173)
Construct: expressed in transfected cells; host or cells: CHO-K1
Assay: cAMP TR-FRET assay with forskolin, M4-overexpressing CHO-K1 cells
Assay type: cell-based
Settings: cAMP assay

// below: answered molecules
Molecule: CCOC(=O)N1CC2(CC[C@@H](N3CCN(c4cc(F)cnc4-c4ccc5c(c4)nnn5C)CC3)C2)C1 [Compound A176]
Emax: 80 to 100%

Molecule: CCOC(=O)N1CC2(CC[C@@H](N3CCN(c4cc(F)cnc4-c4cnc(C5CC5)nc4)CC3)C2)C1 [Compound A183]
Emax: 80 to 100%

Molecule: [2H]C([2H])([2H])n1ccc(-c2ncc(F)cc2N2CCN([C@@H]3CCC4(C3)CN(C(=O)OCC)C4)CC2)n1 [Compound A199]
Emax: 19 to 49.9%

Query string: Reported Emax for CCOC(=O)N1CC2(CC[C@@H](N3CCN(c4cc(F)cnc4-c4c(O)cccc4F)CC3)C2)C1 [Compound A167] : what is it?
Result string: 80 to 100%

---

The entries below are paired with their reported Emax.
Target: M1 muscarinic acetylcholine receptor (mAChR) (Homo sapiens, UniProt P11229)
Construct: expressed in transfected cells; host or cells: CHO-K1
Sequence (P11229 whole entry): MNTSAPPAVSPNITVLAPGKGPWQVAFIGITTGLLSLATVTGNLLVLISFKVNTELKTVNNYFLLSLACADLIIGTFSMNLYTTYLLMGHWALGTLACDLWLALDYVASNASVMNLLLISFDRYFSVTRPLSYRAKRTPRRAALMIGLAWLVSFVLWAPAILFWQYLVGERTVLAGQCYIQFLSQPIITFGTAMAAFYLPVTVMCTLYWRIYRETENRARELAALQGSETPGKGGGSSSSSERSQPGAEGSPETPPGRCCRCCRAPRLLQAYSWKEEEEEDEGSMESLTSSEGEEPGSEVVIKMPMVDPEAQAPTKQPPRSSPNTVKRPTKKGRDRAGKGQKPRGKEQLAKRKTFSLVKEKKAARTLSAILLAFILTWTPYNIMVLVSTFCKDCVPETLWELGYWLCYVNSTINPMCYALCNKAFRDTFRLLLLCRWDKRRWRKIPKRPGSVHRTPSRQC
Experiment: FLIPR calcium assay (Fluo 8), M1-overexpressing CHO-K1 cells
Format: cell-based
Details: FLIPR

Item smiles: CCOC(=O)N1CC2(CC[C@@H](N3CCN(c4cc(F)cnc4N4CCOCC4)CC3)C2)C1
Readout kind: Emax
Value: 19 to 49.9%

Please look at the following compound next.
Query string: Missing value: Emax, M1 muscarinic acetylcholine receptor (mAChR) (Homo sapiens, UniProt P11229), entry `CCOC(=O)N1CC2(CC[C@@H](N3CCN(c4cc(F)cnc4-c4cnc(F)nc4)CC3)C2)C1` . Fill in?
Result string: 19 to 49.9%

---

Target: M4 mAChR (Homo sapiens)
Construct: expressed in transfected cells; host or cells: CHO-K1
Experiment: cAMP TR-FRET assay with forskolin, M4-overexpressing CHO-K1 cells
Format: cell-based
Details: cAMP assay
Description: The M2 and M4 mACh receptors are Gi-coupled receptors which, upon activation, produce a decrease in cAMP. Assays were developed that measured the potency and efficacy of compounds at the M2 or M4 mAChR using M2- or M4-overexpressing CHO-K1 cell lines. […]
# Emax per entry

Here are 4 molecules together with their reported answers.
Item smiles: CCOC(=O)N1CC2(CC[C@@H](N3CCN(c4cc(F)cnc4NC4CC5(COC5)C4)CC3)C2)C1
Emax: 19 to 49.9%
--
Item smiles: CCOC(=O)N1CC2(CC[C@@H](N3CCN(c4cc(Cl)cnc4-n4cc(C)nn4)CC3)C2)C1
Emax: 80 to 100%
--
Item smiles: CCOC(=O)N1CC2(CC[C@@H](N3CCN(c4cc(F)cnc4-c4ccc(=O)n(CC)c4)CC3)C2)C1
Emax: 80 to 100%
--
Item smiles: CCOC(=O)N1CC2(CC[C@@H](N3CCN(c4cc(F)cnc4OC4(C)CCOCC4)CC3)C2)C1
Emax: 80 to 100%

Query string: // fetch M4 mAChR (Homo sapiens) Emax for `CCOC(=O)N1CC2(CC[C@@H](N3CCN(c4cc(F)cnc4-c4cnc(C(F)F)cn4)CC3)C2)C1`
Result string: 80 to 100%

Query string: Check `CCOC(=O)N1CC2(CC[C@@H](N3CCN(c4cc(F)cnc4N4CCOCC4)CC3)C2)C1` too.
Result string: 80 to 100%

Query string: Also, `CCOC(=O)N1CC2(CC[C@@H](N3CCN(c4cc(F)cnc4-c4nc(C)cs4)CC3)C2)C1` please.
Result string: 50 to 79.9%

---

Target: M4 mAChR (Homo sapiens, UniProt P08173)
Construct: expressed in transfected cells; host or cells: CHO-K1
Sequence (P08173 1-479): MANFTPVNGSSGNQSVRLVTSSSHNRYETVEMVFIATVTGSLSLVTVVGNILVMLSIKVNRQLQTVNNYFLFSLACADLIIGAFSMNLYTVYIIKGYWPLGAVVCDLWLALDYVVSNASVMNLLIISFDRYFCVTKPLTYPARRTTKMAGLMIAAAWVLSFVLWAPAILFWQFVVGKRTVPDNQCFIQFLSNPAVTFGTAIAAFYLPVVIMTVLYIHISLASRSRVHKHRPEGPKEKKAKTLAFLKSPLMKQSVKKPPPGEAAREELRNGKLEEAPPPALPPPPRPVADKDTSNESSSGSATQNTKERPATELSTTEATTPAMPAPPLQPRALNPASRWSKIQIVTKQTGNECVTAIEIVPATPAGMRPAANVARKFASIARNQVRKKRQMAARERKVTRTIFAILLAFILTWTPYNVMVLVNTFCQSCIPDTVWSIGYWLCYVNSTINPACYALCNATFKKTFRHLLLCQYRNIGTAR
Test: cAMP TR-FRET assay with forskolin, M4-overexpressing CHO-K1 cells
Format: cell-based
Details: cAMP assay
Readout kind: Emax

Item smiles: CCOC(=O)N1CC2(CC[C@@H](N3CCN(c4cc(F)cnc4-n4ccc(C)n4)CC3)C2)C1
Emax: 50 to 79.9%
//
Item smiles: CCOC(=O)N1CC2(CC[C@@H](N3CCN(c4cc(C#N)cnc4-c4cnccn4)CC3)C2)C1
Emax: 19 to 49.9%
//
Item smiles: CCOC(=O)N1CC2(CC[C@@H](N3CCN(c4cc(Cl)cnc4-c4cnn(C(C)C)n4)CC3)C2)C1
Emax: 50 to 79.9%

Query string: Which Emax is listed for `CCOC(=O)N1CC2(CC[C@@H](N3CCN(c4cccnc4N4CCCCC4)CC3)C2)C1` ?
Result string: 80 to 100%

---

Target: M3 muscarinic acetylcholine receptor (mAChR) (Homo sapiens)
Construct: expressed in transfected cells; host or cells: CHO-K1
Sequence (P20309 whole entry): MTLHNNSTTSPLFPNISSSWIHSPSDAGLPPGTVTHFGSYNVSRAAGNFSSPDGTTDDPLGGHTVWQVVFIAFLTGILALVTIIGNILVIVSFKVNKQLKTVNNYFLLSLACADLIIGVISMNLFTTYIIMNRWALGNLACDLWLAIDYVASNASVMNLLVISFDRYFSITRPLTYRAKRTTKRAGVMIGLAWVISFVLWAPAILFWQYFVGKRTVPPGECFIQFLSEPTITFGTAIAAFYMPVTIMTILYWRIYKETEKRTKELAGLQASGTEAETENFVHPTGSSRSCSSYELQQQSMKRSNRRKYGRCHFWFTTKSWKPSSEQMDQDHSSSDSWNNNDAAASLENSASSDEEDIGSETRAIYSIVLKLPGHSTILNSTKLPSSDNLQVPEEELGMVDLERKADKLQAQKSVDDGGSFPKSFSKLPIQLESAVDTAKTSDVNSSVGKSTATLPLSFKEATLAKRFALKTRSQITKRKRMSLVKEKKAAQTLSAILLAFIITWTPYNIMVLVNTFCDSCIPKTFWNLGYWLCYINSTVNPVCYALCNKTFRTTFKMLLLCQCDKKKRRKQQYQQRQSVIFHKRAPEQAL
Assay: FLIPR calcium assay (Fluo 8), M3-overexpressing CHO-K1 cells
Assay type: cell-based
Conditions: FLIPR
pEC50: −log10 of the molar value.
Catalogue of pEC50 readings, one per entry.

Solved entries (count: 3):
Compound: CCOC(=O)N1CC2(CC[C@@H](N3CCC(c4cc(F)cnc4-c4ccc(F)cn4)CC3)C2)C1
pEC50: < 5.00
//
Compound: CCOC(=O)N1CC2(CC[C@@H](N3CCN(c4cc(Cl)cnc4-c4ccc(=O)n(C)c4)CC3)C2)C1
pEC50: < 5.00
//
Compound: CCOC(=O)N1CC2(CC[C@@H](N3CCN(c4cccnc4N4CCCCC4)CC3)C2)C1
pEC50: < 5.00

Query string: Which pEC50 value is on record for CCOC(=O)N1CC2(CC(N3[C@@H]4CC[C@H]3CN(c3cc(F)cnc3-c3cnccn3)C4)CS2)C1 (single isomer, unassigned) [Compound A219] ?
Result string: < 5.00

---

# reported Emax; entries follow
Molecular target: M4 mAChR (Homo sapiens, UniProt P08173)
Construct: expressed in transfected cells; host or cells: CHO-K1
Experiment: cAMP TR-FRET assay with forskolin, M4-overexpressing CHO-K1 cells
Format: cell-based
Settings: cAMP TR-FRET with forskolin

Would you please look over these solved cases?
Compound: CCOC(=O)N1CC2(CC[C@@H](N3CCN(c4cc(F)cnc4-c4ccc(CO)s4)CC3)C2)C1 [Compound A88]
Emax: 80 to 100%
--
Compound: CCOC(=O)N1CC2(CCC(N3CCN(c4cccnc4N4CCC4)CC3)C2)C1 (stereo not drawn) [Compound A4]
Emax: 80 to 100%
--
Compound: CCOC(=O)N1CC2(CC[C@@H](N3CCN(c4cc(F)cnc4-c4cccc5nn(C)cc45)CC3)C2)C1 [Compound A60]
Emax: 80 to 100%
--
Compound: CCOC(=O)N1CC2(CC[C@@H](N3CCN(c4cc(F)cnc4-c4cnc(OC)c(F)c4)CC3)C2)C1 [Compound A139]
Emax: 80 to 100%
--
Compound: CCOC(=O)N1CC2(CC[C@@H](N3CCN(c4cc(F)cnc4-c4c(C)n[nH]c4C)CC3)C2)C1 [Compound A81]
Emax: 80 to 100%
--
Compound: CCOC(=O)N1CC2(CC[C@@H](N3CCN(c4cc(F)cnc4-c4cc(C)nc(F)c4)CC3)C2)C1 [Compound A125]
Emax: 80 to 100%
--
Compound: CCOC(=O)N1CC2(CC[C@@H](N3CCN(c4cc(F)cnc4-c4ccnc(F)c4)CC3)C2)C1 [Compound A55]
Emax: 80 to 100%
--
Compound: CCOC(=O)N1CC2(CC[C@@H](N3CCN(c4cc(F)cnc4-c4cccc(O)c4F)CC3)C2)C1 [Compound A142]
Emax: 80 to 100%

Query string: Form field - read-out: Emax; system: M4 mAChR (Homo sapiens, UniProt P08173); submitted item: CCOC(=O)N1CC2(CC[C@@H](N3CCN(c4cc(F)cnc4-c4cnc(OC)nc4)CC3)C2)C1 [Compound A146]
Result string: 80 to 100%

Query string: // query: CCOC(=O)N1CC2(CC[C@@H](N3CCN(c4cc(F)cnc4C4CCOCC4)CC3)C2)C1 [Compound A7]
Result string: 80 to 100%

Query string: // repeat for CCOC(=O)N1CC2(CC[C@@H](N3CCN(c4cc(F)cnc4-c4ccc(OC)c(F)c4)CC3)C2)C1 [Compound A112] and report
Result string: 80 to 100%

Query string: Continue with CCOC(=O)N1CC2(CC[C@@H](N3CCN(c4cc(F)cnc4-c4conc4C)CC3)C2)C1 [Compound A140]
Result string: 80 to 100%

Query string: And for CCOC(=O)N1CC2(CC[C@@H](N3CCN(c4cc(F)cnc4-c4cnc(SC)nc4)CC3)C2)C1 [Compound A63] ?
Result string: 80 to 100%

Query string: Note, next up: CCOC(=O)N1CC2(CC[C@@H](N3CCN(c4cc(F)cnc4-c4ccncc4C#N)CC3)C2)C1 [Compound A64]
Result string: 80 to 100%

Query string: What do you get for CCOC(=O)N1CC2(CC[C@@H](N3CCN(c4cc(F)cnc4-c4cnc(N5CCC5)nc4)CC3)C2)C1 [Compound A124] ?
Result string: 80 to 100%
